Just for reference, paper PMC6042199 is where these values come from.

Catalogue of Inhibitory effects α-glucosidase (acarbose equivalents) values
system: yeast α-glucosidase from Saccharomyces cerevisiae; experiment: α-glucosidase inhibitory effect (pNPG, AUC of absorbance at 405 nm); type: biochemical; conditions: converted into acarbose equivalents
A complete answer gives the number followed by the unit.

Request the reported Inhibitory effects α-glucosidase (acarbose equivalents) associated with O=c1cc(-c2ccccc2)oc2cc(O)c(O)c(O)c12 [Baicalein, baicalein]
3.58 ± 0.07 μg acarbose/μg

Input O=c1cc(-c2ccccc2)oc2cc(O)cc(O)c12 [Chrysin, chrysin]
2.36 ± 0.03 μg acarbose/μg

Input O=C(O)[C@H]1O[C@@H](Oc2cc(O)c3c(=O)cc(-c4ccc(O)cc4)oc3c2)[C@H](O)[C@@H](O)[C@@H]1O [Apigenin-7-O-G, apigenin-7-O-glucuronide]
1.83 ± 0.02 μg acarbose/μg

Input O=C(O)[C@H]1O[C@@H](Oc2cc3oc(-c4ccccc4)cc(=O)c3c(O)c2O)[C@H](O)[C@@H](O)[C@@H]1O [Baicalin, baicalin]
1.68 ± 0.02 μg acarbose/μg

Input O=C(O)[C@H]1O[C@@H](Oc2cc(O)c3c(=O)cc(-c4ccccc4)oc3c2)[C@H](O)[C@@H](O)[C@@H]1O [Chrysin-7-O-G, chrysin-7-O-glucuronide]
1.63 ± 0.01 μg acarbose/μg

Input O=C(O)[C@H]1O[C@@H](Oc2cc3oc(-c4ccc(O)cc4)cc(=O)c3c(O)c2O)[C@H](O)[C@@H](O)[C@@H]1O [Scutellarin, scutellarin]
3.18 ± 0.06 μg acarbose/μg

Input O=c1cc(-c2ccc(O)cc2)oc2cc(O)cc(O)c12 [Apigenin]
4.31 ± 0.08 μg acarbose/μg

###

biological target: porcine pancreatic α-amylase (Sus scrofa); construct: purchased Sigma-Aldrich Co. (St. Louis, MO, USA); test: α-amylase inhibitory effect (starch, dinitrosalicylic acid, 540 nm); type: biochemical; details: Contribution = [Ei/E0] × C × 100
Sequence (P00690 16-511): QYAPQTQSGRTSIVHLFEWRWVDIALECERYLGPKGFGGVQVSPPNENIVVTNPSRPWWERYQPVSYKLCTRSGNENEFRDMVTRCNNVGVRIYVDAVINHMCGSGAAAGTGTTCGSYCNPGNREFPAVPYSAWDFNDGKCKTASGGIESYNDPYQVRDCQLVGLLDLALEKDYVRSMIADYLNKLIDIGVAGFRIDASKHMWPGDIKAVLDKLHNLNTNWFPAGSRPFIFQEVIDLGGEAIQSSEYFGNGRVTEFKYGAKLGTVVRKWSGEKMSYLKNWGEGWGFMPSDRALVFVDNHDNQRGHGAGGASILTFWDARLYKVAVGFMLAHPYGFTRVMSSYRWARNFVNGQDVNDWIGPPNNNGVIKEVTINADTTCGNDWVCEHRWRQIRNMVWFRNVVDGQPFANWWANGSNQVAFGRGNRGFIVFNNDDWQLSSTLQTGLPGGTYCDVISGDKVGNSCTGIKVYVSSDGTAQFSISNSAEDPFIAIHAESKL
Catalogue of Contribution to the overall enzyme inhibitory effect of the extract, α-amylase values
Number in %, nothing else.

| Compound | Readout number |
| --- | --- |
| O=C(O)[C@H]1O[C@@H](Oc2cc3oc(-c4ccccc4)cc(=O)c3c(O)c2O)[C@H](O)[C@@H](O)[C@@H]1O | 4.95 |
| O=C(O)[C@H]1O[C@@H](Oc2cc(O)c3c(=O)cc(-c4ccccc4)oc3c2)[C@H](O)[C@@H](O)[C@@H]1O [Chrysin-7-O-G, chrysin-7-O-glucuronide] | 2.63 |
| O=c1cc(-c2ccccc2)oc2cc(O)c(O)c(O)c12 | 23.37 |
| O=C(O)[C@H]1O[C@@H](Oc2cc3oc(-c4ccc(O)cc4)cc(=O)c3c(O)c2O)[C@H](O)[C@@H](O)[C@@H]1O | 14.80 |
| O=c1cc(-c2ccccc2)oc2cc(O)cc(O)c12 | 6.91 |

The record that follows has no Contribution to the overall enzyme inhibitory effect of the extract, α-amylase shown yet.
Record O=C(O)[C@H]1O[C@@H](Oc2cc(O)c3c(=O)cc(-c4ccc(O)cc4)oc3c2)[C@H](O)[C@@H](O)[C@@H]1O [Apigenin-7-O-G, apigenin-7-O-glucuronide] : what is its Contribution to the overall enzyme inhibitory effect of the extract, α-amylase with porcine pancreatic α-amylase (Sus scrofa)?
2.74

###

Reported IC50 for target or system porcine pancreatic α-amylase (Sus scrofa, UniProt P00690), by entry.
A complete answer gives the number followed by the unit.

| Compound | Target system | IC50 |
| --- | --- | --- |
| O=C(O)[C@H]1O[C@@H](Oc2cc(O)c3c(=O)cc(-c4ccccc4)oc3c2)[C@H](O)[C@@H](O)[C@@H]1O [Chrysin-7-O-G, chrysin-7-O-glucuronide] | porcine pancreatic α-amylase (Sus scrofa, UniProt P00690) | 2280 µM |
| O=C(O)[C@H]1O[C@@H](Oc2cc(O)c3c(=O)cc(-c4ccc(O)cc4)oc3c2)[C@H](O)[C@@H](O)[C@@H]1O [Apigenin-7-O-G, apigenin-7-O-glucuronide] | porcine pancreatic α-amylase (Sus scrofa, UniProt P00690) | 1470 µM |
| O=c1cc(-c2ccccc2)oc2cc(O)c(O)c(O)c12 [Baicalein, baicalein] | porcine pancreatic α-amylase (Sus scrofa, UniProt P00690) | 1240 µM |
| O=C(O)[C@H]1O[C@@H](Oc2cc3oc(-c4ccccc4)cc(=O)c3c(O)c2O)[C@H](O)[C@@H](O)[C@@H]1O [Baicalin, baicalin] | porcine pancreatic α-amylase (Sus scrofa, UniProt P00690) | 1480 µM |

Request the reported IC50 associated with O=C(O)[C@H]1O[C@@H](Oc2cc3oc(-c4ccc(O)cc4)cc(=O)c3c(O)c2O)[C@H](O)[C@@H](O)[C@@H]1O [Scutellarin, scutellarin]
799 µM
